- system: 5-HT2C edited (accession number AAF35842.1) (Homo sapiens, UniProt P28335, I156V/I160V/N158S)
- measurement_protocol: biochemical
- Sequence (P28335 whole entry I156V/N158S/I160V, looked up): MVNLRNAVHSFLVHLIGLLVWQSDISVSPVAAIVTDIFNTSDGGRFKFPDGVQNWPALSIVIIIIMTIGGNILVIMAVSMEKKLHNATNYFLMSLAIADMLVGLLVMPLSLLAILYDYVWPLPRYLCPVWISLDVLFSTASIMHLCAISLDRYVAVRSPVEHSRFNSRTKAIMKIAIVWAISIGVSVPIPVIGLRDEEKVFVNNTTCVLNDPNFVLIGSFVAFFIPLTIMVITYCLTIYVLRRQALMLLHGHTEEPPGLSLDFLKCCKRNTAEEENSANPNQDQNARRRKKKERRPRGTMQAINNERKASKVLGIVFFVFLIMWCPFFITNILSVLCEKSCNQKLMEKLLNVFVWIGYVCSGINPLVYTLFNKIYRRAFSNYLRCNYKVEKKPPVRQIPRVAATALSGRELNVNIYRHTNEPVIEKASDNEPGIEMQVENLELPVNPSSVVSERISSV

| smiles_str | IC50 |
| --- | --- |
| COc1ccc2c(c1)CCN2CCN(C)C | 1 to 10 µM |
| C[C@H](C(=O)n1ccc2ccccc21)N(C)C | 1 to 10 µM |
| COc1ccc2c(c1)CCCN2CCN(C)C | 0.101 to 1 µM |
| CN(C)C(C)(C)Cn1ccc2c(F)c(F)ccc21 | > 10 µM |
| COc1ccc2c(ccn2C[C@@H](C)N)n1 | > 10 µM |
| C[C@H](Cn1ccc2cnccc21)N(C)C | > 10 µM |
| COc1ccc2c(ccn2CC(C)(C)N)c1 | 1 to 10 µM |
| COc1ccc2c(ccn2C(=O)CN(C)C)c1 | > 10 µM |
| COc1ccc2c(ccn2[C@H]2C[C@@H](N(C)C)C2)c1 | 1 to 10 µM |
| COc1ccc2c(ccn2CC2(N(C)C)CC2)c1 | 1 to 10 µM |
| CN[C@H](C)Cn1ccc2nc(OC)ccc21 | > 10 µM |

====

- system: 5-HT2C edited (accession number AAF35842.1) (Homo sapiens, UniProt P28335, I156V/I160V/N158S)
- measurement_protocol: biochemical
pIC50: −log10 of the molar value.
observation_type: pIC50

| smiles_str | value_reported |
| --- | --- |
| COc1ccc2c(ccn2CC(C)(C)N(C)C)c1 | 5.00 to 6.00 |
| CN(C)CC(=O)n1ccc2ccccc21 | < 5.00 |
| COc1ccc2c(ccn2CCN(C)C)n1 | 6.00 to 7.00 |
| COc1cc2ccn(C[C@@H](C)N)c2cn1 | 6.00 to 7.00 |
| CN(C)CCn1ccc2cnccc21 | < 5.00 |
| CN(C)C(C)(C)Cn1ccc2ccc(F)cc21 | < 5.00 |
| CC(C)(N)Cn1ccc2c(F)c(F)ccc21 | 6.00 to 7.00 |
| CN[C@H](C)Cn1ccc2cc(OC)cnc21 | < 5.00 |
| CN(C)C(C)(C)Cn1ccc2cccc(F)c21 | < 5.00 |
| COc1ccc2c(c1)CCN(CCN(C)C)C2 | 6.00 to 7.00 |
| CN(C)CCn1ccc2cncnc21 | 5.00 to 6.00 |
| CN(C)C(C)(C)Cn1ccc2c(F)cccc21 | < 5.00 |
| CN[C@H](C)Cn1ccc2cnccc21 | < 5.00 |
| COc1cc2ccn(C[C@@H](C)N(C)C)c2cn1 | < 5.00 |
| COc1ccc2c(ccn2CC(C)(C)N(C)C)n1 | < 5.00 |

====

- system: 5-HT2C edited (accession number AAF35842.1) (Homo sapiens, UniProt P28335, I156V/I160V/N158S)
- measurement_protocol: cell-based
- Sequence (P28335 33-458 I156V/N158S/I160V limits assumed): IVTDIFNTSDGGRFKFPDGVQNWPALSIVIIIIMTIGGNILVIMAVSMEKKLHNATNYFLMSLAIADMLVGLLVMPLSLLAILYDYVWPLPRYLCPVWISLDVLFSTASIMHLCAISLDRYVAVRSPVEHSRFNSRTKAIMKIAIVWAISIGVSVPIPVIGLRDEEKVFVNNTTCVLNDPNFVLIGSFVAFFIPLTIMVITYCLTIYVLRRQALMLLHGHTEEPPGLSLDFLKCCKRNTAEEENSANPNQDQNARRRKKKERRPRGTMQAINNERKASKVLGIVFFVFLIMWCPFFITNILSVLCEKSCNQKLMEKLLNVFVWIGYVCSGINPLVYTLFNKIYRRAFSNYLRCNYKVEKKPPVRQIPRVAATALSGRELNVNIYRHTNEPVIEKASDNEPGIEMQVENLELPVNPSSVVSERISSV
The following compounds are shown together with reported EC50 values.

| smiles_str | EC50 |
| --- | --- |
| CN(C)C(C)(C)Cn1ccc2c(F)c(F)ccc21 | > 10 µM |
| CN(C)C(C)(C)Cn1ccc2cccc(F)c21 | > 10 µM |
| COc1ccc2c(ccn2CCN(C)C)n1 | > 10 µM |
| COc1ccc2c(ccn2CC(C)(C)N(C)C)c1F | > 10 µM |
| CN[C@H](C)Cn1ccc2cc(OC)ncc21 | 1 to 10 µM |
| COc1cnc2c(ccn2C[C@@H](C)N)c1 | 1 to 10 µM |
| CC(C)(N)Cn1ccc2c(F)c(F)ccc21 | 0.101 to 1 µM |
| CN(C)CC(=O)n1ccc2cc(F)ccc21 | > 10 µM |
| CN(C)CCn1ccc2cnccc21 | > 10 µM |
| C[C@H](C(=O)n1ccc2cc(F)ccc21)N(C)C | > 10 µM |
| C[C@@H](N)Cn1ccc2cncnc21 | 1 to 10 µM |
| COc1ccc2c(c1)CCN2CCN(C)C | > 10 µM |
| C[C@@H](N)Cn1ccc2cnccc21 | 1 to 10 µM |
| COc1ccc2c(ccn2[C@H]2C[C@H](N(C)C)C2)c1 | > 10 µM |
| CN(C)CC(=O)n1ccc2ccccc21 | > 10 µM |
| COc1ccc2c(ccn2C(=O)CN(C)C)c1 | > 10 µM |
| COc1ccc2c(ccn2C(=O)[C@@H](C)N(C)C)c1 | > 10 µM |
| Cc1cn(CC(C)(C)N)c2ccc(F)cc12 | 0.101 to 1 µM |
| CN[C@H](C)Cn1ccc2cc(OC)cnc21 | 1 to 10 µM |
| COc1ccc2c(c1)CN(CCN(C)C)C2 | 1 to 10 µM |
| COc1ncc2c(ccn2CC(C)(C)N(C)C)n1 | > 10 µM |
| COc1ccc2c(ccn2CC(C)(C)N)c1 | 1 to 10 µM |
| COc1cnc2c(ccn2CCN(C)C)c1 | > 10 µM |
| COc1cc(F)c2c(ccn2CC(C)(C)N(C)C)c1 | > 10 µM |
| COc1cc2ccn(C[C@@H](C)N)c2cn1 | 0.101 to 1 µM |
